- System: SNB-19 CNS
- Test details: NCI-60 one-dose screen, 48 h (100 = growth as untreated, 0 = no growth, -100 = all killed)
- Test context: 10 µM unless noted
Compounds without any hit were thinned out: in the full panel of roughly 83,000, 20% have a hit.
Assign labels as follows, please: 1 for growth below 90%; 0 for growth equal to or exceeding 90%.

Compound	Qualitative label
COC(=O)c1ccc2c(c1)n(Cc1ccc3ccccc3c1)c[n+]2Cc1ccc2ccccc2c1	1
C=C(C)[C@@H]1CC[C@]2(C(=O)O)CC[C@]3(C)[C@H](CC[C@@H]4[C@@]5(C)C[C@@H](CC#Cc6ccccc6C)C(=O)C(C)(C)[C@@H]5CC[C@]43C)[C@@H]12	1
Clc1ccc2c(NCCCNC3CCCCC3)ccnc2c1	0
O=C(Nc1cc(Nc2ncccc2-c2ncnc3nc[nH]c23)ccc1F)c1cc(C(F)(F)F)cc(C(F)(F)F)c1	1
CC(C)NS(=O)(=O)c1cccc(-c2ccc3c4c(n(CCCN(C)C)c(=O)c3c2)-c2ccccc2C4=O)c1	0
Cc1ccc(C(=O)O)o1	0
COc1ccc(NC(=O)c2ccc(Nc3ncnc4[nH]c(C)c(C)c34)cc2)cc1	0
CCOC(=O)C(=Cc1c(-c2ccccc2)[nH]c2ccccc12)C(=O)OCC	0
CCCCCCC/C=C/[C@H]1O[C@]23C(=O)C[C@@]4(C[C@@H](OC5OC(CO)C(O)C(O)C5O)C[C@@H]4[C@H]2C=C1C)OC3=O (stereo not given in full)	1
CCOC(=O)c1c(C(F)(F)F)n([O-])c2ccc(Cl)cc2[n+]1=O	1
O=C(O)c1cc(N=Nc2ccc(-c3ccc(N=Nc4c(S(=O)(=O)O)cc5ccc(Nc6ccccc6)cc5c4O)cc3)cc2)ccc1O	0
OCCNc1nc(NCCO)nc(Nc2ccc(C3=NN(c4cc(Cl)cc(Cl)c4)C(c4ccc(Cl)cc4)C3)cc2)n1 (stereo not given)	1
C#CCOC(=O)[C@]1(C)CCC[C@]2(C)[C@H]3C[C@H]4C(C(C)C)=C[C@]3(CC[C@H]21)[C@@H]1C(=O)CCC(=O)[C@@H]14	1
CN(C)C1=NCCN1	0
O=C1CC23OC4ON=C(Br)C4C2C(O)c2ccccc2N13 (stereo not given)	0
CC1(C)CC[C@]2(c3nnc(-c4ccncc4)o3)CC[C@]3(C)C(=CC[C@@H]4[C@@]5(C)CCC(=O)C(C)(C)[C@@H]5CC[C@]43C)[C@@H]2C1	1
O=C(Nc1cc(=O)[nH]c(=O)[nH]1)C(Cl)Cl	0
Cc1cccc(C)c1Nc1nnc(-c2ccc(F)cc2)o1	0
CCN1CCN(Cc2ccc(NC(=O)c3cccc(C#Cc4cccc5[nH]nc(N)c45)c3)cc2C(F)(F)F)CC1	1
Cc1nc(C)c(C)nc1C	0
COc1ccc(/C=C/C(=O)/C=C(/C=C/c2ccc(OC)c(OC)c2)OB(F)F)cc1OC	1
[2H]c1nc(Nc2ncc3cc(C(=O)N(C)C)n(C4CCCC4)c3n2)c([2H])c([2H])c1N1C([2H])([2H])C([2H])([2H])NC([2H])([2H])C1([2H])[2H]	1
C[C@H]1[C@H](C)CC[C@]2(C(=O)OCCCC[P+](c3ccccc3)(c3ccccc3)c3ccccc3)CC[C@]3(C)C(=CC[C@@H]4[C@@]5(C)CC[C@H](OC(=O)C(Cl)Cl)C(C)(C)[C@@H]5CC[C@]43C)[C@H]12	1
CC(C)NS(=O)(=O)c1cccc(-c2ccc3c(=O)n(CCCN)c4c(c3c2)C(=O)c2ccccc2-4)c1	0
COc1cc2nc3c(=O)n(CCN(C)C)cnn3c(=O)c2cc1OC	0
CN1CCN(S(=O)(=O)O[C@@H]2C(=O)N(c3cc4c5ccccc5ccc4c4ccccc34)[C@H]2c2ccc(F)cn2)CC1	1
Cc1nc2sc(C(=O)Nc3ccccc3)c(N)c2cc1C(C)O (stereo not given)	1
Cc1c(Cl)cccc1NC(=O)c1sc2nc3c(cc2c1N)COCC3	1
COc1cc(C2=N/C(=C\c3cc4ccccc4nc3Oc3ccccc3)C(=O)N2C(=N)N)cc(OC)c1OC	1
COC(=O)[C@]1(C)CCC[C@]2(C)[C@H]3C[C@H]4C(C(C)C)=C[C@]3(CC[C@H]21)[C@@H]1C(=O)N(CCC#N)C(=O)[C@@H]14	0
O=S(=O)(Nc1nccs1)c1ccc(Nc2nc(-c3ccncc3)cs2)cc1	0
COC1=CC=CC2(OC)C3(O)CCCc4cccc(c43)N3C(=O)COC132 (stereo not given)	0
C=C1C(=O)O[C@H]2[C@H]1CC/C(C=Nc1c(N)cc(C(F)(F)F)cc1Br)=C\CC[C@@]1(C)O[C@@H]21	1

* * *

- Tested on: HT29 colon
- Test details: NCI-60 one-dose screen, 48 h (100 = growth as untreated, 0 = no growth, -100 = all killed)
- Test context: 10 µM unless noted
The panel holds about 83,000 compounds, 20% with a hit somewhere; the sample as a whole holds those more often.
Property name: growth (%)

In [3]: df
Out[3]:
                                    compound  property_name  endpoint_value
 0  COc1cc([C@H](C)c2ccc3ccccc3c2)cc(OC)c1OC         growth            8.72
 1  CS(=O)(=O)O[C@@H]1C(=O)N(c2cc3c4ccccc4ccc3c3ccccc23)[C@H]1c1ccc(F)cn1         growth            3.71
 2  NS(=O)(=O)c1ccc(C2C3=C(CCCC3=O)OC3=C2C(=O)c2ccccc2C3=O)cc1 (stereo unspecified)         growth           -29.3
 3  COc1cc(/C=C/C(=O)/C=C/c2cc3ccc(Cl)cc3n(Cc3ccccc3)c2=O)ccc1O         growth           -46.5
 4  CCCCc1n(Cc2ccc3ccccc3n2)cc[n+]1Cc1ccc2ccccc2c1         growth            -8.3
 5           Nc1ccccc1NS(=O)(=O)c1ccc(Cl)cc1         growth            91.7
 6  C#C[C@@]1(O)[C@@H](CO)O[C@@H](n2cc(-c3ccco3)c3c(N)ncnc32)[C@@H]1O         growth            28.8
 7  CCCCc1nc(Cl)c(C2CC(c3ccc(Cl)cc3)=NN2c2cc(Cl)cc(Cl)c2)[nH]1 (stereo unspecified)         growth            85.4
 8  COc1cc(C2=N/C(=C\c3cc4ccccc4nc3Oc3ccccc3)C(=O)N2C(=N)N)cc(OC)c1OC         growth            64.2
 9  O=C(O)c1ccc(-n2cc(/C=N/Nc3ccc(Cl)cc3Cl)c(-c3ccccc3)n2)cc1         growth            94.9
10              COc1ccc(Cl)c([N+](=O)[O-])c1         growth             107
11  Cc1c(Cl)cccc1NC(=O)c1sc2nc3c(cc2c1N)CCCCC3         growth            9.15
12  N#Cc1c(-c2ccc(F)cc2)nc(N/N=C/c2cccc(O)c2)nc1N1CCOCC1         growth            79.8
13  COc1ccc2oc(=O)cc(-c3nc4ccc(N)cc4[nH]3)c2c1         growth            97.3
14  COc1ccc2oc(=O)cc(-c3c(C#N)c(N)n4nc(N)c(C#N)c4c3C#N)c2c1         growth            90.7
15  CCCCC1=c2c([nH]c3ccc(OC)cc23)=NC2C=CC=NC12 (stereo unspecified)         growth            77.8
16                      CCCCCOC(=O)c1ccccc1O         growth            96.5
17  Cc1nc2sc(C(=O)Nc3cccc(Cl)c3C)c(N)c2cc1C(C)O (stereo unspecified)         growth            1.68
18  O=C1Nc2ccccc2C12C=C(c1ccccc1)Nc1c2c(-c2ccccc2)nn1-c1ccccc1 (stereo unspecified)         growth            46.1
19  CC(C)C[C@H](C(=O)O)N(C)C(=O)[C@@H]1CCCN1C(=O)[C@H](C)OC(=O)[C@H](CCC(N)=O)NC(=O)[C@@H]1CCC(=O)N1         growth             104
20          N#Cc1ccc(Oc2ccc3ccc(=O)oc3c2)cc1         growth             114

* * *

- Tested on: A549/ATCC NSCLC
- Test details: NCI-60 one-dose screen, 48 h (100 = growth as untreated, 0 = no growth, -100 = all killed)
- Test context: 10 µM unless noted
About 83,000 compounds went through this panel and 20% of them were active in at least one assay; those are over-represented in the sample as a whole.
# Lookup of reported growth keyed by entry
Property name: growth (%)

>>> df
                                   compound  property_name  endpoint_value
0  OCCNc1nc(NCCO)nc(Nc2ccc(C3=NN(c4cc(Cl)cc(Cl)c4)C(c4ccc(Cl)cc4)C3)cc2)n1 (centres undefined)         growth            2.31
1  Cc1nc2sc(C(=O)Nc3cccc4ccccc34)c(N)c2cc1C(C)O (centres undefined)         growth            22.7
2  Cc1c(Br)cccc1NC(=O)c1sc2nc3c(cc2c1N)CN(Cc1ccccc1)CC3         growth            21.4
3  C=C1C(=O)O[C@H]2[C@H]1CC/C(COC(=O)/C=C/c1cccnc1)=C\CC[C@@]1(C)O[C@@H]21         growth            61.8
4  O=C(O)c1cc(N=Nc2ccc(-c3ccc(N=Nc4c(S(=O)(=O)O)cc5ccc(Nc6ccccc6)cc5c4O)cc3)cc2)ccc1O         growth             104
5  O=C(/C(=C/c1ccc([N+](=O)[O-])cc1)SCc1ccc(F)cc1)c1ccc(Cl)cc1         growth            86.8
6  COc1ccc(-n2nc(C(=O)NCC(=O)O)nc2-c2ccccc2)cc1         growth            97.8
7  COc1ccc2[nH]c(=O)c(/C=C/C(=O)/C=C/c3ccc(O)c(OC)c3)cc2c1         growth            22.6
8  COc1cc(/C=C/C(=O)/C=C/c2cc3ccc(Cl)cc3n(Cc3ccccc3)c2=O)ccc1O         growth           -3.99
